Some molecules, each annotated with its measured GI50.
Test system: MCF7
Procedure Summary: NCI tumour cell line growth inhibition, 48 h
The source made the active and inactive calls. Cut-off read from the data, not from the text of the source: active = GI50 up to about 1.1 µM and inactive = higher. Where a SMILES comes first, the peptide text is derived from it.

INSERT INTO results (molecule, experimental_system, endpoint_value) VALUES
  ('COc1cc(/C=C/C(=O)OCCc2ccccc2)ccc1O', 'MCF7', '20.8 µM (inactive)'),
  ('CCOc1ccc(/C=C2\N=C(c3ccccc3)OC2=O)cc1', 'MCF7', '> 100 µM (inactive)'),
  ('CC(=O)N(C)c1cc(NCc2ccccc2)ccc1OCc1ccccc1', 'MCF7', '17.9 µM (inactive)'),
  ('O=C(O)CCCc1nc2c(n1Cc1ccccc1)C(=O)c1ccccc1C2=O', 'MCF7', '29.6 µM (inactive)'),
  ('COC(=O)CC(C#N)(OP1(=O)OC(c2ccccc2)C(C)N1C)c1ccccc1 (stereo not given)', 'MCF7', '28.2 µM (inactive)'),
  ('CN(C(=O)Cc1cc(Cl)c(Cl)cc1N=C=S)[C@H]1CCCC[C@@H]1N1CCCC1', 'MCF7', '13.3 µM (inactive)'),
  ('COc1cc(S(=O)(=O)Nc2nc(-c3ccc(N4C(=O)C(CC(=O)O)SC4c4cccs4)cc3)cs2)ccc1Cl (stereo not given)', 'MCF7', '25 µM (inactive)'),
  ('O=C1c2cccc3cc([N+](=O)[O-])cc(c23)C(=O)N1CCCN1CCN(CCCNc2ccc3ncn4c5ccccc5c(=O)c2c34)CC1', 'MCF7', '< 0.005 µM (active)'),
  ('NC(=O)C1CCCN1C(=O)C(N)Cc1ccccc1 (stereo not drawn) (H-Phe-Pro-NH2; configuration not given here)', 'MCF7', '> 100 µM (inactive)'),
  ('N#Cc1c(N2CCOCC2)[nH]c(=O)c(C(c2c(Cl)cccc2Cl)c2c(O)c(C#N)c(N3CCOCC3)[nH]c2=O)c1O', 'MCF7', '16.7 µM (inactive)');

Request: Give MCF7 GI50 for COc1ccccc1/C=C\c1cnnc2ccccc12
Result: 3.56 µM (inactive)

---

System: MOLT-4
Procedure Summary: NCI tumour cell line growth inhibition, 48 h
The source made the active and inactive calls. Rule as the data show it: active = GI50 up to about 1.1 µM and inactive = higher.
Observation Type: GI50

INSERT INTO results (compound, endpoint_value) VALUES
  ('CC(=O)Nc1ccccc1NC1CC(C)N(c2ccccc2)N1C(C)=O (stereo not drawn)', '> 10 µM (inactive)'),
  ('O=c1sc(-c2nc3ccccc3[nH]2)c(/N=C/c2ccccc2)n1-c1ccccc1', '> 100 µM (inactive)');

Request: Which GI50 is listed for Cc1nc2nn(Cc3ccccc3)cc2c(=O)o1 ?
Result: > 100 µM (inactive)

---

Tested on: SK-MEL-2
Procedure Summary: NCI tumour cell line growth inhibition, 48 h
Calls of active or inactive are those of the source. Rule as the data show it: active = GI50 up to about 1.1 µM and inactive = higher.
Some compounds, each annotated with its measured GI50.

# example entries with known answers
INSERT INTO measurements (compound, observation_type, endpoint_value) VALUES
  ('COc1cc2c(cc1-c1coc3cc(O)ccc3c1=O)OCO2', 'GI50', '37 µM (inactive)'),
  ('C=CCC(N(C)C(=O)[C@H](Cc1ccccc1)NC(=O)OCc1ccccc1)P(=O)(Oc1ccccc1)Oc1ccccc1 (some centres undefined)', 'GI50', '> 100 µM (inactive)'),
  ('CC(=O)N1N=C(c2c(O)ccc3ccccc23)CC1c1ccc(Cl)cc1 (centres undefined)', 'GI50', '17.5 µM (inactive)'),
  ('CCCCC1NC=Nc2c1ccc1c2[nH]c2ccccc21 (centres undefined)', 'GI50', '3.82 µM (inactive)'),
  ('CC(C)=CCNc1ncnc2c1c(C#N)cn2C1OC(CO)C(O)C1O (centres undefined)', 'GI50', '39.7 µM (inactive)'),
  ('Cc1cc(-c2nc3cc(F)ccc3s2)ccc1NC(=O)[C@@H](N)CCCCN', 'GI50', '2.89 µM (inactive)'),
  ('CCN(CC)CCNc1ccc2ncn3c4ccccc4c(=O)c1c23', 'GI50', '5.01 µM (inactive)'),
  ('CCOC(=O)C(=Cc1ccc(Oc2ccccc2)cc1)C(=O)OCC', 'GI50', '1.85 µM (inactive)');

Request: Which GI50 is listed for Cc1ccc(S(=O)(=O)NNC(=O)c2sc(-c3nc(C)c(C(=O)NNS(=O)(=O)c4ccc(C)cc4)s3)nc2C)cc1 ?
Result: > 100 µM (inactive)

---

Test system: K562
Procedure Summary: NCI tumour cell line growth inhibition, 48 h
Active and inactive are the calls of the source. Rule as the data show it: active = GI50 up to about 1.1 µM and inactive = higher.
Observation Type: GI50

INSERT INTO measurements (compound, observation_type, endpoint_value) VALUES
  ('Cc1cc(N(CCC#N)CCC#N)ccc1CC1N=C(c2ccccc2)OC1=O (centres undefined)', 'GI50', '> 100 µM (inactive)'),
  ('CN(C(=O)CC(=O)CP(=O)(c1ccccc1)c1ccccc1)c1ccccc1', 'GI50', '> 100 µM (inactive)'),
  ('COP12(OC)NC(=O)OC1(C(F)(F)F)c1ccccc1O2 (centres undefined)', 'GI50', '> 100 µM (inactive)');

Request: Which GI50 is listed for COC(=O)c1ccc(Oc2nc3ccccc3nc2-c2cccs2)cc1 ?
Result: > 10 µM (inactive)

Request: Which GI50 is listed for CC(=O)Nc1ccc(CNc2cc(=O)[nH]c(=O)[nH]2)cc1 ?
Result: > 100 µM (inactive)

Request: Which GI50 is listed for CN(C)Cc1cc(C(=O)/C=C/c2ccccc2)cc(CN(C)C)c1O ?
Result: 14.2 µM (inactive)

Request: Which GI50 is listed for CCCCCCCCCCCc1nnc(N)o1 ?
Result: 51.5 µM (inactive)

Request: Which GI50 is listed for CC1c2c(Cl)nc3ccccc3c2Oc2c1c(Cl)nc1ccccc21 ?
Result: 46.8 µM (inactive)

Request: Which GI50 is listed for CC(=O)OCC1OC(Sc2nc(-c3ccccc3)c(C#N)c(=O)n2C2OC(COC(C)=O)C(OC(C)=O)C(OC(C)=O)C2OC(C)=O)C(OC(C)=O)C(OC(C)=O)C1OC(C)=O (centres undefined) ?
Result: 32.2 µM (inactive)

---

Tested on: NCI-H460
Procedure Summary: NCI tumour cell line growth inhibition, 48 h
The source made the active and inactive calls. Rule as the data show it: active = GI50 up to about 1.1 µM and inactive = higher.
Select the correct class. Options are true for active, false for inactive and nothing else.

Would you please look over these solved cases?
INSERT INTO assay_data (compound, discrete_label) VALUES
  ('COC1=C(N2CC2)C(=O)c2nc3n(c2C1=O)CCC3', 'true'),
  ('CCCCCCCCCCCCCCCCCCNc1nc(=O)n(C2CC(O)C(COP(=O)(O)OCC(COP(=O)(O)OC3C(CO)OC(n4ccc(N)nc4=O)C3O)OCCCCCCCCCCCCCCCCCC)O2)cc1F (stereo unspecified)', 'false'),
  ('COc1ccc(-c2nc(N(C)C)c3ccccc3n2)cc1', 'false'),
  ('O=C1CCCCCCCCCCC(=O)N2CCOCCOCCN1Cc1cccc(n1)C2', 'false'),
  ('COC(=O)C(N)CCCC(N)C(=O)NC(C)C(=O)NC(CCC(=O)NCCNCCNc1c2ccccc2nc2cccc([N+](=O)[O-])c12)C(N)=O (stereo unspecified)', 'false');

Request: Per the records of this test, what outcome belongs to OC12c3ccccc3C1(N1CCOCC1)CCCCC21OCCCO1 (stereo unspecified) ?
Result: false

Request: Per the records of this test, what outcome belongs to Cc1ccc(S(=O)(=O)NNC(=O)c2sc(-c3nc(C)c(C(=O)NNS(=O)(=O)c4ccc(C)cc4)s3)nc2C)cc1 ?
Result: false

Request: Per the records of this test, what outcome belongs to CC(C)c1ccc2nc3ccc(C(=O)NCCN(C)C)cn3c(=O)c2c1 ?
Result: false

Request: Per the records of this test, what outcome belongs to COC(=O)CNC(=O)CSc1nnc(COc2ccc(Cl)cc2)n1-c1ccccc1 ?
Result: false

Request: Per the records of this test, what outcome belongs to Cc1nc2nn(Cc3ccccc3)cc2c(=O)o1 ?
Result: false

Request: Per the records of this test, what outcome belongs to C/C(CC(=O)CCCC(=O)Nc1ccc(Cl)cc1Cl)=N/NC(=O)CC#N ?
Result: false

Request: Per the records of this test, what outcome belongs to Cc1cc(N(CCC#N)CCC#N)ccc1/C=C(\NC(=O)/C=C/c1ccccc1)C(=O)Nc1ccc(Cl)cc1 ?
Result: false

Request: Per the records of this test, what outcome belongs to O=C(COc1ccc(Br)cc1Br)N1N=C(c2ccc([N+](=O)[O-])o2)CC1(O)c1ccccc1 (stereo unspecified) ?
Result: false

Request: Per the records of this test, what outcome belongs to COc1cccc(-c2nc(N)c(C#N)c3c2CCS(=O)(=O)c2ccc(C)cc2-3)c1 ?
Result: false

Request: Per the records of this test, what outcome belongs to C/C=C(\C)c1cc(=O)c2c(C)cc3c(c2o1)C(=O)c1c(O)c(C2CC(C)(N(C)C)C(OC(C)=O)C(C)O2)cc(C2CC(N(C)C)C(O)C(C)O2)c1C3=O (stereo unspecified) ?
Result: true

Request: Per the records of this test, what outcome belongs to Cn1c2ccccc2n2c3ccccc3c(=S)c(C#N)c12 ?
Result: false
